Entries and their measured binding signal follow.
molecular target: thrombin (alpha-thrombin) (Homo sapiens, UniProt P00734;P00734 P00734:315-363,P00734:364-622); assay: filter; 10 nM thrombin
Supply the numeric figure in % bound, leaving out any unit text.

Take a look at these entries with their results.
binder | binding signal (% bound)
TCCCGAGCGATCGGGGTGGTTTTTTGGGAGTGGGTGGCTGAGGATCGATC (ssDNA) [AMX(399)_C7] | 6.8
TCCCATCGAGTCGTGGTGTTTTGTTGGCCTGGGTGGCTGAGGATCGATC (ssDNA) [AMX(398)_F2] | 8.76
TCCCATCGATTTGGGGTATGTTATGGGCTCGGGTGGCTGAGGATCGATC (ssDNA) [AMX(398)_A6] | 31.1
TCCCTTGATCCTGGTACATATATTTTCTGGGTGGCTGAGGATCGATC (ssDNA) [AMX(399)_F2] | 7.37

Q. What does the data say about its binding signal? Entry: TCCCGATCGGTCCCAAGGGTATTGTTGGTTTGGGTGGCTGAGGATCGATC (ssDNA) [AMX(399)_F7]
A. 29.6

Q. What does the data say about its binding signal? Entry: TCCCGTCGATCAGGGGTAATTTGCTGGTGGTGGGTGGCTGAGGATCGATC (ssDNA) [AMX(399)_C8]
A. 36.8

Q. What does the data say about its binding signal? Entry: TCCCGTCGGTCCGTTCGGTATTTTTTTCTGGGTGGCTGAGGATCGATC (ssDNA) [AMX(399)_F10]
A. 21.3

Q. What does the data say about its binding signal? Entry: TCCCATCGAACCGCGGGTAATCTTATGGGTCGGGTGGCTGAGGATCGATC (ssDNA) [AMX(399)_E4]
A. 7.5

Q. What does the data say about its binding signal? Entry: TCCCTTGATCCGGTGGTAGTTTTATTGGTGCGGGTGGCTGAGGATCGATC (ssDNA) [AMX(398)_F6]
A. 23.9

Q. What does the data say about its binding signal? Entry: TCCCGATCTATCCGGGGTACATTTGTGGTTTGGGTGGCTGAGGATCGATC (ssDNA) [AMX(399)_C12]
A. 18.7

Q. What does the data say about its binding signal? Entry: TCCCAGGATCGATTCTGGTATTGTTGGTGGGGGTGGCTGAGGATCGATC (ssDNA) [AMX(399)_D9]
A. 20.3

Q. What does the data say about its binding signal? Entry: TCTCATTCGTTCCGGGGTATTTAGTGGGTCGGGTGGCTGAGGATCGATC (ssDNA) [AMX(399)_C10]
A. 35.4
